Data origin: paper PMC4042574

- TESTED TARGET: acetylcholinesterase (AChE) from Electrophorus electricus (electric eel) (Electrophorus electricus)
- Sequence (O42275 24-633): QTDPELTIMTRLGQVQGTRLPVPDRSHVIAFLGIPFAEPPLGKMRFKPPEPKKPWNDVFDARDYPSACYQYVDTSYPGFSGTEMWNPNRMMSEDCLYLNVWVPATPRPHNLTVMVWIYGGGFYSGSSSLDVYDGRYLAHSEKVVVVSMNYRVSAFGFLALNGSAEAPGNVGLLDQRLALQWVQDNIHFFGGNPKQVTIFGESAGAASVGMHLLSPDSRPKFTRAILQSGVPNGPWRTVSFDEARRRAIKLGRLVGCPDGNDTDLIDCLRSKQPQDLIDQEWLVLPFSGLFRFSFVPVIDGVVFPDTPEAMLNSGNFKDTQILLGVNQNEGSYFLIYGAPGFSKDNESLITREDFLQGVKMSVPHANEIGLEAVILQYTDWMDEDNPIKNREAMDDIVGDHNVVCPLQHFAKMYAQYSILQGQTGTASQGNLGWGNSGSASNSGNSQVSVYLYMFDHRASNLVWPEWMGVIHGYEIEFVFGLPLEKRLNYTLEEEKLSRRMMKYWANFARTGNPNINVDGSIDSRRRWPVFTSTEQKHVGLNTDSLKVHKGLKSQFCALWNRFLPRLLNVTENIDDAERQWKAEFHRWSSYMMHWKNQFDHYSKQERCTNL
- ASSAY DETAILS: Ellman assay, […] nm
- Format: biochemical
Reported IC50 by item:
Report the value in µM with no unit label.

Sample answers from the record:
CCCCCCCCCCCCCCCCCCCCCCCCCc1cc(O)cc(O)c1 [AR 25:0] ... 44
CCCCCCCCCCCCCCCCCCCCCc1cc(O)cc(O)c1 [AR 21:0] ... 44

Turning now to a further compound:
Would you kindly share the measured IC50 for CCCCCCCCCCCCCCCCCCCc1cc(O)cc(O)c1 [AR 19:0] ?
77
